Each recorded value in this set is attributed to ChEMBL document CHEMBL1134020.

tgt: Nitric oxide synthase 1 (Rattus norvegicus, UniProt P29476)
Sequence (P29476 whole entry): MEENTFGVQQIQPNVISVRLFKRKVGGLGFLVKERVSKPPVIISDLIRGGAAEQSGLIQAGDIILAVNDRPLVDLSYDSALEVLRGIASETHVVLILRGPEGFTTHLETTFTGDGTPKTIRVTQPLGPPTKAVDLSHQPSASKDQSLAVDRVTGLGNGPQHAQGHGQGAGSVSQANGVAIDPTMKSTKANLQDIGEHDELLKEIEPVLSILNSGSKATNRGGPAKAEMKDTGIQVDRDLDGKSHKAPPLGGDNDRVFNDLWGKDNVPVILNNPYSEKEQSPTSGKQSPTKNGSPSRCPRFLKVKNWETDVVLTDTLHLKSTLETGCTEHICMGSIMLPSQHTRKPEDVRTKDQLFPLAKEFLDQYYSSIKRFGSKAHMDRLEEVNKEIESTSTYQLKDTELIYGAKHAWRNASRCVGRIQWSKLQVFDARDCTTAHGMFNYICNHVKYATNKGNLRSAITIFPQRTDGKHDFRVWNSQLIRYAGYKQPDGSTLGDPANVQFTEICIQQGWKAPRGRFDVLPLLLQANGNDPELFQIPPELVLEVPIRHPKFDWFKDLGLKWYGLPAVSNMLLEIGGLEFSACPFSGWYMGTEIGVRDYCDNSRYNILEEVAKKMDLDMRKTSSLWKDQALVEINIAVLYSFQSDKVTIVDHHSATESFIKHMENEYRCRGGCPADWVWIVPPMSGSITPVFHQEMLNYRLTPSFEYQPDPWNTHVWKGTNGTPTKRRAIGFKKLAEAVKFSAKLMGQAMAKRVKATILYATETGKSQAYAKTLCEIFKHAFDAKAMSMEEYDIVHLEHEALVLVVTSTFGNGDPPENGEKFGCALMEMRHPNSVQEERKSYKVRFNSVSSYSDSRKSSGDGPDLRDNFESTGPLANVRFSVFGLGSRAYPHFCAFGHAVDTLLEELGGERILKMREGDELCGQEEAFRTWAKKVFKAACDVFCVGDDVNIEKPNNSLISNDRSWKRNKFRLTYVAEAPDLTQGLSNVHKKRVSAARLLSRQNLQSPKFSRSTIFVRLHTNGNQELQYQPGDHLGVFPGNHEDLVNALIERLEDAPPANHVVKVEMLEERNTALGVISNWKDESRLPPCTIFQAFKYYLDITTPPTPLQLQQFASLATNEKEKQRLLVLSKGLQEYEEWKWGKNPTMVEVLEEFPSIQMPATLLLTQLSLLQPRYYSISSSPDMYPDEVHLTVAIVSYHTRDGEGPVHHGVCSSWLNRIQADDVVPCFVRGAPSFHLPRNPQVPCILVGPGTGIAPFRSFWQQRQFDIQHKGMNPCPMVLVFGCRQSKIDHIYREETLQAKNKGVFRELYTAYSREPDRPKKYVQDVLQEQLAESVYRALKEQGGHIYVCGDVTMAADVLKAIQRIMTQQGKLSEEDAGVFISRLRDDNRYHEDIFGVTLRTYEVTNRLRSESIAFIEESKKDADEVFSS
protocol.notes: Inhibition of conversion of [3H]L-Arg to [3H]L-citrulline catalyzed by neuronal NOS (n NOS) from rat cerebellum
readout.type: pIC50
Keep in mind that pIC50 stands for -log10 of concentration in molar terms.

State its pIC50: NC1=NC(c2ccc(F)cc2)Cc2ccccc21 (centres undefined)
5.05

More entries:
State its pIC50: COC(=O)[C@@H](N)CCCNC(=N)N[N+](=O)[O-] [L-NAME]
6.82

State its pIC50: NC1=NC(c2ccc(F)cc2)Cc2cccc(Cl)c21 (centres undefined)
4.00

State its pIC50: NC1=NCCCc2ccccc21
5.70

State its pIC50: NC1=NC(c2ccccc2)Cc2cccc(F)c21 (centres undefined)
5.70

State its pIC50: NC1=NCCc2ccccc21
6.40

State its pIC50: C#CC1Cc2ccccc2C(N)=N1 (centres undefined)
6.40

State its pIC50: NC1=NC(c2ccccc2F)Cc2ccccc21 (centres undefined)
4.89

State its pIC50: NC1=NC(c2ccc(F)cc2)Cc2ccc(F)cc21 (centres undefined)
4.36
